Below is a list of entries, each paired with its recorded furin cleavage Z-score value.
# tgt: furin, P09958
# Sequence (P09958 whole entry): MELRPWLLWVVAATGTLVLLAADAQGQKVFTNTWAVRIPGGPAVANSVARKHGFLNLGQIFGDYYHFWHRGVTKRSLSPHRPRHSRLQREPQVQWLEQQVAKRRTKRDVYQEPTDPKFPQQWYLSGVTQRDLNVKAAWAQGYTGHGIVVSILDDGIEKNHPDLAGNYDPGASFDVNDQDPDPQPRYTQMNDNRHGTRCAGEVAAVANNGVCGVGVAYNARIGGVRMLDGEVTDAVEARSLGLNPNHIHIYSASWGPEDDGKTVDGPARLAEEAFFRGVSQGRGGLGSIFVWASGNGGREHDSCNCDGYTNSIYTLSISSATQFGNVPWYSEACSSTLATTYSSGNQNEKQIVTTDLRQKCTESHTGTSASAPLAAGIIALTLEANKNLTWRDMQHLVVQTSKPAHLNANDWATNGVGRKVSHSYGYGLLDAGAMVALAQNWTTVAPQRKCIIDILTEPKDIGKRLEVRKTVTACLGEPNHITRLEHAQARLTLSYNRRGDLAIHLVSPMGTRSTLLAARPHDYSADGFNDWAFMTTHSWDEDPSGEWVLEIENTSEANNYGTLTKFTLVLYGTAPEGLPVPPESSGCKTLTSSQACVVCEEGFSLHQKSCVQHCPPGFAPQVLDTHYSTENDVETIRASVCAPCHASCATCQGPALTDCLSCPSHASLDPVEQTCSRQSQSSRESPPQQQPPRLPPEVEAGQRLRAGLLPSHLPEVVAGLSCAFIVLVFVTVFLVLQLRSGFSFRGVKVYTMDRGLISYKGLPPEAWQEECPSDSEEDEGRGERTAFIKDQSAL
# testMethodNotes: furin cleavage Z-score vs untreated control; higher = more cleavage, active = 3.5 or more, inactive = 1 or less, 8 variable residues between constant flanks;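 note: purified furin at 1:10 enzyme:substrate in 50 mM HEPES pH 7.5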
# conditionDetails: 7.5 min
The other results are listed elsewhere or left out. No count for the full screen is at hand.

residueSequence | furin cleavage Z-score
CAREMEECSQAGNASASA [HC1793] | 0.916
CAEVGCHRPSAGNASASA [HC2356] | 0.279
CAAFGRRRRDAGNASASA [FS-639] | 6.8
CAGRLRPLRDAGNASASA [FS-164] | 6.08
CARSTRDRRSAGNASASA [FS-1273] | 11.6
CAPPPRRTRDAGNASASA [FS-840] | 7.22
CAPPRRRARSAGNASASA [FS-72] | 11.2
